Tested on: M14 melanoma
protocol_notes: NCI tumour cell line growth inhibition, 48 h
Where a SMILES comes first, the peptide text is derived from it. Bridges are numbered along the chain shown (N, C = ends). [ ]: non-standard residue; d: D form. The star is where a group is joined. ξ: configuration not given here. PhAc = O=C(Cc1ccccc1)*; ξP = O=C(O)C1CCCN1
Can you tell me TGI for the items I'm about to list?

CN1C(=O)C(O)CC1c1ccc(C(F)(F)F)cc1 (stereo not drawn): > 100 µM
CC(CCc1ccccc1)NCC(O)n1c(/N=N/N(C)C)nc2c1c(=O)n(C)c(=O)n2C (stereo not drawn): > 100 µM
N#C/C(=C/c1cccc2ccccc12)C(=O)c1ccccc1: 30.6 µM
Cc1cc(Cl)ccc1Nc1nc(C(F)(F)F)ccc1C(=O)N/N=C/c1cccc(O)c1: 17.3 µM
CC(=O)O[C@@H]1C(C2CCCCC2)C=[N+]([O-])O[C@@H]1OC1CCCC1(c1ccccc1)c1ccccc1 (stereo partly drawn): 12.1 µM

For each of the items listed, what is its TGI?
1. O=C1CNN=C(CSc2nc3ccc(I)cc3c(=O)n2Cc2ccccc2)N1
2. C[N+](C)(C)CC1CCCC(C[N+](C)(C)C)C1=NO (stereo not drawn)
3. O=c1cccccc1NCCCCCCCCNc1cccccc1=O

Response:
> 100 µM
> 100 µM
> 100 µM

For each of the items listed, what is its TGI?
1. C=CCC(NCc1ccccc1)[C@H](OCc1ccccc1)[C@@H]1COC(C)(C)O1 (stereo partly drawn)
2. COc1cc(O)c2c3c(ccnc13)-c1ccccc1N2
3. CC1=NOC(C)(O)/C1=N/O (stereo not drawn)
4. OCCOCCO/N=C1\C(c2c(O)[nH]c3ccccc23)=Nc2ccccc21
5. CCOC(=O)C(=CNC(=S)c1ccncc1)C(=O)OCC

Response:
1: > 100 µM; 2: 7.95 µM; 3: > 100 µM; 4: > 100 µM; 5: > 100 µM

For each of the items listed, what is its TGI?
1. C/C=C/C1(C)/C(=N\O)C(C)(CCC)C(=O)N1O (stereo not drawn)
2. COC(=O)c1ccc2[nH]c(O)c(C(=Nc3ccc(N(C)C(=O)CN4CCN(C)CC4)cc3)c3cccc(OC)c3)c2c1
3. CCN(C(C)=N)c1ccccc1
4. O=c1cc(N2CCOCC2)[nH]c(=O)n1-c1cccc(Cl)c1
5. COc1ccc(C2Oc3ccc(O)cc3[C@@H]2C)cc1OC (stereo partly drawn)
6. COc1ccc(CN(Cc2ccc(OC)cc2)C(=O)CC2(O)CCc3ccccc3C2)cc1 (stereo not drawn)

Response:
["> 100 µM", "2.41 µM", "> 100 µM", "> 100 µM", "> 100 µM", "> 100 µM"]

For each of the items listed, what is its TGI?
1. c1ccc2[nH]c(C3CCCCO3)nc2c1 (stereo not drawn)
2. O=C(Cc1ccccc1)N[C@@H]1COC(=O)C2CCCN2C(=O)[C@@H]2CCCN2C1=O (stereo partly drawn) (PhAc-[dS]-Pro-[ξP]; ester 1-C)
3. Cc1ccc(/C(O)=C/c2nc3ccccc3[nH]c2=O)cc1
4. COc1cc(S(=O)(=O)Nc2ccc(-c3csc(N4C(=O)C(C)SC4c4cccc(Oc5ccccc5)c4)n3)cc2)ccc1Cl (stereo not drawn)

Response:
1: > 100 µM; 2: > 100 µM; 3: 73.4 µM; 4: > 100 µM

---

Test system: HCT-116 colon
protocol_notes: NCI tumour cell line growth inhibition, 48 h
observable: TGI

Recorded TGI, per entry:
COc1nc(=O)cc(N)n1C1OC(CO)C(O)C1O (stereo not drawn): > 100 µM
CC1OC(OC2C(O)COC(OC3C(C)OC(OC4C(OC(=O)[C@]56CCC(C)(C)C[C@@H]5C5=CCC7[C@@]8(C)C[C@H](O)[C@H](OC9OC(CO)C(O)C(O)C9O)[C@@](C)(CO)[C@@H]8CC[C@@]7(C)[C@]5(C)CC6)OCC(O)C4O)C(O)C3OC3OCC(O)C(O)C3O)C2O)C(O)C(O)C1O (stereo partly drawn): 38.5 µM
CCCCCOc1ccc(Nc2c(O)c3c(c(O)c2Cl)C(=O)C=CC3=O)cc1: > 10 µM

For each of the items listed, what is its TGI?
1. COc1ccc2c(c1)C(=Nc1ccc(F)c(F)c1F)c1c-2c(Nc2ccc(F)c(F)c2F)nc2ccccc12
2. COc1ccc(-c2ncnc(-c3ccc(OC)c(OC)c3)n2)cc1OC
3. C/C=C/C1(C)/C(=N\O)C(C)(CCC)C(=O)N1O (stereo not drawn)
4. N#Cc1cc2c(cc1Cl)SC(=Nc1ccccc1)N(S(=O)(=O)c1ccc(Cl)cc1)S2(=O)=O
5. N/C(=N\Nc1ccc(C(=O)O)cc1)c1cnccn1

Response:
1: > 100 µM; 2: > 100 µM; 3: > 100 µM; 4: 18 µM; 5: > 100 µM

---

Tested on: OVCAR-3 ovarian
protocol_notes: NCI tumour cell line growth inhibition, 48 h
Use MET when the recorded TGI is no lower than 20 µM; use NOT MET when it is lower.

C=CCC(NCc1ccccc1)[C@H](OCc1ccccc1)[C@@H]1COC(C)(C)O1 (stereo partly specified): MET

Prompt: Would you say "CC(=O)COC(=O)CC(C)=O" shows TGI at minimum 20 µM?
Response: MET

Prompt: Would you say COC(=O)C1=C(C(=O)OC)C2(C)OC1C(=O)C21CC1 (stereo unspecified) shows TGI at minimum 20 µM?
Response: MET

Prompt: Would you say "N#Cc1cc2c(cc1Cl)SC(=Nc1ccccc1)N(S(=O)(=O)c1ccc(Cl)cc1)S2(=O)=O" shows TGI at minimum 20 µM?
Response: NOT MET

Prompt: Would you say CC(=O)Oc1c(C)cc2c(c1C)C(C)CN2C(C)=O (stereo unspecified) shows TGI at minimum 20 µM?
Response: MET

Prompt: Would you say "N[C@@H]1CCCC[C@@H]1N.O=P([O-])([O-])CNCP(=O)([O-])[O-].[Pt+2]" shows TGI at minimum 20 µM?
Response: MET

Prompt: Would you say "COc1ccc(/C=C/c2cc(OC)cc(OC)c2)cc1" shows TGI at minimum 20 µM?
Response: NOT MET

Prompt: Would you say "O=S(=O)(Nc1cccc(Cl)c1)c1ccc(-c2cnc(C3CC3)o2)cc1" shows TGI at minimum 20 µM?
Response: NOT MET

Prompt: Would you say "O=c1cccccc1NCCCCCCCCNc1cccccc1=O" shows TGI at minimum 20 µM?
Response: MET

Prompt: Would you say "COc1ccc2c(c1)/C(=C\c1c(-c3ccccc3)nc3n1CCS3)C(=O)N2" shows TGI at minimum 20 µM?
Response: NOT MET

Prompt: Would you say "CN(C)C=Nc1ccc2c3c(cccc13)-c1ccccc1-2" shows TGI at minimum 20 µM?
Response: MET

---

Can you tell me GI50 for the items I'm about to list?
Tested on: RXF 393 renal
protocol_notes: NCI tumour cell line growth inhibition, 48 h

Fc1cc(-c2csc3n[nH]c(=S)n23)c(Cl)cc1Cl: 21600 nM
Cn1ccnc1C(=O)/C=C/c1ccc(C(=O)Nc2ccc(F)cc2)cc1: 780 nM
CC[C@H](C)[C@H](NC(=O)C12CC(NC)(C1)C2)C(=O)N(C)[C@H](C[C@@H](OC(C)=O)c1nc(C(=O)N[C@@H](Cc2ccccc2)C[C@H](C)C(=O)OC)cs1)C(C)C: 160 nM

For each of the items listed, what is its GI50?
1. O=C1C(C(Nc2ccccc2)c2ccccc2)=C([O-])c2ccccc21.O=C1C(C(Nc2ccccc2)c2ccccc2)=C([O-])c2ccccc21.[Ni+2] (configuration not stated)
2. COc1ccc(OC)c(N(CCN2C(=O)c3ccccc3C2=O)C(=O)CCl)c1
3. COc1ccc2c(c1)C(=Nc1ccc(F)c(F)c1F)c1c-2c(Nc2ccc(F)c(F)c2F)nc2ccccc12

Response:
["4900 nM", "615 nM", "17200 nM"]

For each of the items listed, what is its GI50?
1. O=C1/C(=C/c2ccc(Cl)cc2Cl)CN(S(=O)(=O)c2ccccc2)C/C1=C\c1ccc(Cl)cc1Cl
2. CCOc1cc2ncc(C#N)c(Nc3ccc(F)c(Cl)c3)c2cc1NC(=O)CC1CCSS1 (configuration not stated)
3. COc1ccc2cnc(N)c(C#Cc3cc(C(=O)Nc4ccc(CN5CCN(C)CC5)c(C(F)(F)F)c4)cnc3C)c2c1
4. COc1ccc2c(c1)c(-c1nonc1-c1cn(C)c3ccccc13)cn2C

Response:
1050 nM
1130 nM
488 nM
270 nM

---

Can you tell me TGI for the items I'm about to list?
System: NCI/ADR-RES ovarian
protocol_notes: NCI tumour cell line growth inhibition, 48 h
Answers are plain numbers, in µM.

Recorded TGI, per entry:
O=C1Nc2ccccc2/C1=C/C(=N/c1nnc(-c2ccc(Cl)cc2)s1)c1ccccc1: 12.2
CN(C)c1ccc2nc3ccc(=[N+](C)C)c([N+](=O)[O-])c-3sc2c1: 8.13

Briefly, TGI measured for "S=C(NCCc1ccccn1)c1nc[nH]c1C(=S)NCCc1ccccn1" : 65.1
